assay: Serum level was determined at 120 min after an intravenous administration of 50 mg/kg in rats; type: ADME, organism-based; parameters: dose 50 mg/kg, route intravenous; details: rat, read-out: Serum level
measurement.kind: concentration at 2 h (ng/mL)
Give bare numbers, in ng/mL.

Supply concentration at 2 h value. Item: `Cn1nnnc1SCC1=C(C(=O)O)N2C(=O)[C@@H](NC(=O)/C(=N/N)c3csc(N)n3)[C@H]2SC1` 20500

* * *

experiment: Serum level was determined at 120 min after intramuscular administration of 50 mg/kg in rats; assay type: ADME, organism-based; design: dose 50 mg/kg, route intramuscular; details: rat, im, read-out: Serum level
measurement.kind: concentration at 2 h (ng/mL)
One number for each entry, in ng/mL.

Read the entry `Cn1nnnc1SCC1=C(C(=O)O)N2C(=O)[C@@H](NC(=O)/C(=N/N)c3csc(N)n3)[C@H]2SC1` and write its reported concentration at 2 h. 32900

* * *

assay: Serum level was determined at 15 min after an intravenous administration of 50 mg/kg in rats; type: ADME, organism-based; design: dose 50 mg/kg, route intravenous; conditions: rat, read-out: Serum level
measurement.kind: concentration at 0.25 h (µg/mL)
One number for each entry, in µg/mL.

State, in one line, measured concentration at 0.25 h of `Cn1nnnc1SCC1=C(C(=O)O)N2C(=O)[C@@H](NC(=O)/C(=N/N)c3csc(N)n3)[C@H]2SC1` 137

* * *

assay: Distribution (50 mg/kg) was determined in lung 60 min after intramuscular administration; assay type: ADME, organism-based; settings: im, read-out: Tissue distribution
measurement.kind: concentration at 1 h (ng/g)
One number for each entry, in ng/g.

Query concentration at 1 h for `Cn1nnnc1SCC1=C(C(=O)O)N2C(=O)[C@@H](NC(=O)/C(=N/N)c3csc(N)n3)[C@H]2SC1` 7660

* * *

assay: Distribution (50 mg/kg) was determined in kidney 30 min after intravenous administration; type: ADME, organism-based; conditions: read-out: Tissue distribution
measurement.kind: concentration at 0.5 h (ng/g)
Answers are plain numbers, in ng/g.

Dear colleague, please send me the reported concentration at 0.5 h for `Cn1nnnc1SCC1=C(C(=O)O)N2C(=O)[C@@H](NC(=O)/C(=N/N)c3csc(N)n3)[C@H]2SC1` when you can. 19600

* * *

test: Distribution (50 mg/kg) was determined in liver 30 min after intramuscular administration; format: ADME, organism-based; conditions: im, read-out: Tissue distribution
measurement.kind: concentration at 0.5 h (ng/g)
Answers are plain numbers, in ng/g.

Give me measured concentration at 0.5 h, please, for this molecule: `Cn1nnnc1SCC1=C(C(=O)O)N2C(=O)[C@@H](NC(=O)/C(=N/N)c3csc(N)n3)[C@H]2SC1` 22100

* * *

assay: Distribution (50 mg/kg) was determined in kidney 30 min after intramuscular administration; format: ADME, organism-based; details: im, read-out: Tissue distribution
measurement.kind: concentration at 0.5 h (ng/g)
Answers are plain numbers, in ng/g.

For the molecule `Cn1nnnc1SCC1=C(C(=O)O)N2C(=O)[C@@H](NC(=O)/C(=N/N)c3csc(N)n3)[C@H]2SC1` , give its reported concentration at 0.5 h. 36200

* * *

experiment: Distribution (50 mg/kg) was determined in lung 15 min after intramuscular administration; format: ADME, organism-based; conditions: im, read-out: Tissue distribution
measurement.kind: concentration at 0.25 h (ng/g)
One number for each entry, in ng/g.

Specify reported concentration at 0.25 h for the compound shown: `Cn1nnnc1SCC1=C(C(=O)O)N2C(=O)[C@@H](NC(=O)/C(=N/N)c3csc(N)n3)[C@H]2SC1` 10700
